Assay: growth inhibitors of H69AR lung tumor, primary screen, human, duplicate replicates (AID 580)
Settings: H69AR lung tumor cells viability, ATP luminescence, 72 h; at 10 µM
Activity calls are given as the source filed them.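 How the source made its calls: active means viability at or under a set limit in both replicates, limit being median viability minus 3 SD (cut at about 48% in these data, passing the limit was not always enough); inconclusive means at or under the limit in just one replicate; inactive means at or above the limit in both replicates.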
Entry note: the call must match one of active, inactive

These recorded examples may help you get a feel for the data.
Cc1cc(NC(=O)CCC(=O)N(c2cccnc2)C(C(=O)NC2CCCC2)c2ccccc2F)no1 (stereo unspecified) :: inactive
O=C(CCSc1ccccc1)N1CCOCC1 :: inactive

In this assay, the call recorded for CCCC(=O)Nc1ccc(OCC(O)CNC(C)C)c(C(C)=O)c1 (stereo unspecified) was what? inactive

In this assay, the call recorded for `c1ccc(-c2cn3c4c(sc3n2)CCCC4)cc1` was what? active

In this assay, the call recorded for `O=C(NC1CCCC1)c1ccc2nc[nH]c2c1` was what? inactive

In this assay, the call recorded for `COCCNC(=O)c1cc2c(-c3ccccc3F)nn(C)c2s1` was what? inactive
